Here, each record is paired with measured ED50 data.
Tested on: Rattus norvegicus
measurement description: Induction of catalepsy in po dosed rat measured for 0.5 to 18 hrs
Type: organism-based
test context: in vivo

For orientation, consider the following solved cases.
mol smiles: CN1CCN(C2=Nc3ccc(Cl)cc3Nc3cscc32)CC1
assayed system: Rattus norvegicus
ED50: 16 mg/kg

mol smiles: COc1ccc2c(c1)Nc1cscc1C(N1CCN(C)CC1)=N2
assayed system: Rattus norvegicus
ED50: 15 mg/kg

Here is the next item to consider.
What does the data say about its ED50? Entry: CN1CCN(C2=Nc3ccccc3N(C)c3cscc32)CC1
14 mg/kg

* * *

System: Rattus norvegicus
measurement description: Induction of catalepsy in po dosed rat measured for 0.5 to 18 hrs
Type: organism-based
test context: in vivo
measured parameter: ED50

As a guide, the following entries are already answered.
compound: CN1CCN(C2=Nc3cc(Cl)ccc3Nc3cscc32)CC1
observed result: 16 mg/kg
--
compound: CN1CCN(C2=Nc3cc(Cl)ccc3N(C)c3cscc32)CC1.O=C(O)/C=C/C(=O)O
observed result: 40 mg/kg
--
compound: CN1CCN(C2=Nc3ccccc3Nc3cscc32)CC1
observed result: 11 mg/kg

Consider the compound CN1c2ccc(Cl)cc2N=C(N2CCN(CCO)CC2)c2cscc21.Cl and give its measured ED50.
13 mg/kg

Query: ED50; subject: CN(C)CCCN1c2ccccc2Sc2ccc(Cl)cc21 [CHLORPROMAZINE]
7 mg/kg

# query: ED50 of entry CN1CCN(C2=Nc3cc(Cl)ccc3Nc3ccccc32)CC1 [CLOZAPINE]
76 mg/kg
